System: Plasma
Assay: Plasma concentration in C57B1/6NCrl mouse at 3 mg/kg, po
Type: ADME, organism-based
Conditions: in vivo
value-kind: concentration (nM)
Report as a plain number; the unit nM is understood.

Form field, concentration with Plasma, item COc1c(Nc2ccc(C#N)cc2Cl)ncnc1OC1C2COCC1CN(C(=O)OC1(C)CC1)C2 (stereo unspecified) : 350

----------
Please go through the items and note down their %max.
Biological target: Glucose-dependent insulinotropic receptor (Mus musculus) (UniProt Q7TQP3)
Sequence (Q7TQP3 whole entry): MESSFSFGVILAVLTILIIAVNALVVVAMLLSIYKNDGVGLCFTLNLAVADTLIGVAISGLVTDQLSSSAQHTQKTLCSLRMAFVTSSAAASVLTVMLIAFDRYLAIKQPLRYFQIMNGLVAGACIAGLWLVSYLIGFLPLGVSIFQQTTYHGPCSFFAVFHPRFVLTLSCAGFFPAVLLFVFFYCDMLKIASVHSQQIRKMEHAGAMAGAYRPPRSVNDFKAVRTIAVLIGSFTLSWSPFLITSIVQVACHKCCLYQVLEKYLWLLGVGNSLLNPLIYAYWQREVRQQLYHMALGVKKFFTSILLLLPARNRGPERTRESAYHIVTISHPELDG
Assay: Agonist activity at mouse GPR119 expressed in HEK293 cells assessed as cAMP accumulation after 30 mins by fluorescence analysis
Type: functional, cell-based
Report as a plain number; the unit % is understood.

Form field, %max with Glucose-dependent insulinotropic receptor (Mus musculus) (UniProt Q7TQP3), item COc1c(Nc2ccc(C#N)cc2Cl)ncnc1OC1C2COCC1CN(C(=O)OC1(C)CC1)C2 (stereo not drawn) : 99

Form field, %max with Glucose-dependent insulinotropic receptor (Mus musculus) (UniProt Q7TQP3), item CC1(OC(=O)N2CC3COCC(C2)C3Oc2cc(Nc3ccc(C#N)cc3Cl)ncn2)CC1 (stereo not drawn) : 105

Form field, %max with Glucose-dependent insulinotropic receptor (Mus musculus) (UniProt Q7TQP3), item Cc1c(Nc2ccc(S(C)(=O)=O)cc2F)ncnc1OC1CC2COCC(C1)N2C(=O)OC1(C)CC1 (stereo not drawn) : 79

Form field, %max with Glucose-dependent insulinotropic receptor (Mus musculus) (UniProt Q7TQP3), item Cc1c(Oc2ccc(C#N)cc2Cl)ncnc1OC1C2COCC1CN(C(=O)OC1(C)CC1)C2 (stereo not drawn) : 143

Form field, %max with Glucose-dependent insulinotropic receptor (Mus musculus) (UniProt Q7TQP3), item COc1c(Nc2ccc(C#N)cc2F)ncnc1OC1C2COCC1CN(C(=O)OC1(C)CC1)C2 (stereo not drawn) : 116

Form field, %max with Glucose-dependent insulinotropic receptor (Mus musculus) (UniProt Q7TQP3), item Cc1c(Nc2ccc(S(C)(=O)=O)cc2Cl)ncnc1OC1CC2COCC(C1)N2C(=O)OC(C)(C)C (stereo not drawn) : 78

Form field, %max with Glucose-dependent insulinotropic receptor (Mus musculus) (UniProt Q7TQP3), item Cc1c(Nc2ccc(C#N)cc2Cl)ncnc1OC1C2COCC1CN(S(=O)(=O)C1CC1)C2 (stereo in doubt; 17) : 53

Form field, %max with Glucose-dependent insulinotropic receptor (Mus musculus) (UniProt Q7TQP3), item Cc1c(Nc2ccc(C#N)cc2Cl)ncnc1OC1C2COCC1CN(C(=O)OC(C)(C)C)C2 (stereo in doubt; 20) : 69
